Biological target: hTREM2 (Homo sapiens)
Sequence (Q9NZC2 19-230): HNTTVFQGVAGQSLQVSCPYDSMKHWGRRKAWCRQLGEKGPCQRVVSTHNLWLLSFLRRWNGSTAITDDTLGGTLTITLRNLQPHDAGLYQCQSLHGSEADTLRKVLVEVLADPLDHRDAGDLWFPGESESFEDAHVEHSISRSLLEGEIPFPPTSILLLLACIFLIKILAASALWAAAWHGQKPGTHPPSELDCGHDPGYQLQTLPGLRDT
Sequence (O43914 22-113 partner): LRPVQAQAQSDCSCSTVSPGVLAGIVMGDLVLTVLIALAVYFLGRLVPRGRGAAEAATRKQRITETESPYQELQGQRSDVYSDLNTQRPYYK
Assay: TREM2 activity by cellular Syk phosphorylation (AlphaScreen/AlphaLISA) in TREM2/DAP12-HEK cells, used for Examples 1-305
Type: cell-based
Parameters: expressed in transfected cells
Conditions: HEK293 Cells
pEC50: −log10 of the molar value.
Overview of recorded pEC50 for various compounds

Input: Item Cc1ncc2c(-c3ccc(Cl)cc3F)cc(N3CCO[C@@H](c4cnn(C)c4)C3)cc2n1 : provide pEC50
Output: 6.30 to 7.30

Input: Item Cc1nc2nc([C@@H]3C[C@@H](C)O[C@@H](c4cnn(C)c4)C3)cc(-c3ccc(Cl)cc3F)c2nc1C : provide pEC50
Output: 6.30 to 7.30

Input: Item Cc1cc([C@H]2CN(c3nc(C45CC(C(F)(F)F)(C4)C5)c4ccc(C)nc4n3)CCO2)ccn1 : provide pEC50
Output: ≥ 7.30

Input: Item Cc1ncc([C@@H]2CN(c3nc(-c4ccc(Cl)cc4F)c4cc(C)c(C)nc4n3)CCO2)cn1 (single isomer, unassigned) : provide pEC50
Output: 6.30 to 7.30

Others:
Input: Item Cc1nc2nc(N3CCO[C@@H](c4cnn(C)c4)C3)nc([C@H]3CC[C@H](C)CC3)c2nc1C : provide pEC50
Output: ≥ 7.30

Input: Item Cc1ccc2c(n1)nc(N1CCO[C@@H](c3cnn(C)c3)C1)nc2[C@H]1C[C@H](C(F)(F)F)C1 : provide pEC50
Output: 5.52 to 6.30

Input: Item Cc1cnc2c(-c3ccc(Cl)cc3F)cc([C@@H]3CCO[C@H](c4cnn(C)c4)C3)nc2n1 : provide pEC50
Output: 4.00 to 5.52

Input: Item Cc1nc2nc(N3CCO[C@@H](c4cnn(C)c4)C3)nc(C3=CCCC3)c2nc1C : provide pEC50
Output: 5.52 to 6.30

Input: Item Cc1nc2nc(N3CCO[C@@H](c4cnn(C)c4)C3)nc(N3C[C@@H]4[C@H](C3)C4(F)F)c2nc1C : provide pEC50
Output: 5.52 to 6.30

Input: Item Cc1cc(Cl)ccc1-c1nc(N2CCO[C@@H](c3cnn(C)c3)C2)nc2nc(C)c(C)nc12 : provide pEC50
Output: 6.30 to 7.30

Input: Item Cc1cc2c(-c3ccc(F)cc3F)nc([C@H]3CCO[C@@H](c4cnn(C)c4)C3)nc2nc1C (single isomer, unassigned) : provide pEC50
Output: ≥ 7.30

Input: Item Cc1ccc2c(-c3ccc(Cl)cc3F)cc(N3CCO[C@@H](c4cnn(C)c4)C3)nc2n1 : provide pEC50
Output: 6.30 to 7.30

Input: Item Cn1cc([C@H]2CN(c3cc4nccnc4c(-c4ccc(Cl)cc4F)n3)CCO2)cn1 : provide pEC50
Output: 4.00 to 5.52

Input: Item Cc1cc([C@H]2CN(c3nc(C4CCC(F)(F)CC4)c4nc(C)c(C)nc4n3)CCO2)ccn1 : provide pEC50
Output: ≥ 7.30

Input: Item Cc1nc2nc(N3CCO[C@@H](c4cnn(C5CC5)c4)C3)nc(-c3ccc(C(F)(F)F)nc3)c2nc1C : provide pEC50
Output: ≥ 7.30

Input: Item Cc1nc2nc(N3CCO[C@H]([C@@H]4CCOC4)C3)nc(-c3ccc(F)cc3F)c2nc1C [Example 243] : provide pEC50
Output: 6.30 to 7.30

Input: Item Cc1ccc2c(-c3ccc(Cl)cc3F)nc(N3CCO[C@@H](c4cnc(C)nc4)C3)nc2n1 (single isomer, unassigned) : provide pEC50
Output: 6.30 to 7.30

Input: Item Cc1cc2c(-c3ccc(Cl)cc3F)cc(N3CCO[C@@H](c4cnn(C)c4)C3)nc2nc1C : provide pEC50
Output: ≥ 7.30

Input: Item Cc1ncc([C@@H]2CN(c3nc(-c4ccc(C(F)(F)F)nc4)c4nc(C)c(C)nc4n3)CCO2)cn1 : provide pEC50
Output: ≥ 7.30

Input: Item Cc1nc2nc(N3CCO[C@@H](c4cnn(C)c4)C3)nc(C3CC4(C3)CC(F)(F)C4)c2nc1C : provide pEC50
Output: ≥ 7.30

Input: Item Cc1nc2nc(N3CCO[C@H]([C@H]4CCOC4)C3)nc(-c3ccc(F)cc3F)c2nc1C (single isomer, unassigned) : provide pEC50
Output: 6.30 to 7.30

Input: Item Cc1ccc2c(n1)nc(N1CCO[C@@H](c3cnn(C4CC4)c3)C1)nc2[C@H]1CC[C@H](C(F)(F)F)CC1 : provide pEC50
Output: ≥ 7.30

Input: Item Cc1cc([C@H]2CN(c3nc4nc(C)c(C)cc4c([C@H]4C[C@H](C(F)(F)F)C4)n3)CCO2)cnn1 (single isomer, unassigned) : provide pEC50
Output: ≥ 7.30

Measured values drawn from patent US11884675B2 for this set.
